Below, each entry is listed alongside its reported IC50.
System tested: IGF-1R Ba/F3 (Homo sapiens)
Construct: fused on or other part: TEL- (or BCR-) IGF-1R in Ba/F3: the kinase part holds the site
Sequence (P08069 999-1274 limits assumed): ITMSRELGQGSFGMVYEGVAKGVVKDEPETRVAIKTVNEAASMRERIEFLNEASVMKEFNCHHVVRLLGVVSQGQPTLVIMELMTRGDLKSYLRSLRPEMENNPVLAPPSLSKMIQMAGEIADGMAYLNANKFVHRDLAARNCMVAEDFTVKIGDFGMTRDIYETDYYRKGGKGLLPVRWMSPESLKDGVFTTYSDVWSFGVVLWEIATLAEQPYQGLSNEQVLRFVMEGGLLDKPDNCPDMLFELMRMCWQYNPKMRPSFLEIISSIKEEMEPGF
Procedure text: Ba/F3 Cell Viability Inhibition Assay (IGF-1R Ba/F3)
Study conditions: Tel-TK transformed Ba/F3 cells, 48 hours, Britelite luminescence
API: value field is a number in nM; no unit string.

For orientation, consider the following solved cases.
>  <Molecular string>
Cc1cc(Nc2nc(Nc3cc(C)c(C4CCN(C5CNC5)CC4)cc3F)ncc2Cl)n[nH]1

>  <IC50 [nM]>
101

$$$$
>  <Molecular string>
Cc1cc(Nc2nc(Nc3cc(C)c(C4CCN(C(=O)[C@@H]5CCCN5)CC4)cc3F)ncc2Cl)n[nH]1

>  <IC50 [nM]>
137

$$$$
>  <Molecular string>
Cc1cc(Nc2nc(Nc3cc(C(F)(F)F)c(N4CCN(C)CC4)cc3F)ncc2Cl)n[nH]1

>  <IC50 [nM]>
75

$$$$

In the following, a different molecule is considered.
Please give the measured IC50 for this molecule: Cc1cc(Nc2nc(Nc3cc(C)c(C4CCN(C(=O)[C@@H]5CCN5)CC4)cc3F)ncc2Cl)n[nH]1 161
